target: KRas G12R (Homo sapiens, UniProt P01116, G12R); test: biochemical;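 further: TR-FRET displacement assay of compound binding to KRas, read after one hour at room temperature, potency from a four-parameter fit of percent-of-control values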
Sequence (P01116 1-169 isoform P01116-2 G12R): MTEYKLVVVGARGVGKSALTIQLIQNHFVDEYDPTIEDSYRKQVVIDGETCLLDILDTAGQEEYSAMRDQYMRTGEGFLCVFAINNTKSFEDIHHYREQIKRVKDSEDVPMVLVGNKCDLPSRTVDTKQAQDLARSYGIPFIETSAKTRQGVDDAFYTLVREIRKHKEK
Measurement Label: log10 IC50 (log10 of the value in nM)
Form field - Quantity: IC50; Unit: nM; Scale: log10

Could you please provide reported log10 IC50 for Fc1c(-c2cccc3cccc(Cl)c23)ncc2c(N3CC(n4ccnc4)C3)nc(OCC34CCCN3CCC4)nc12 ? Thanks! 2.79

Could you please provide reported log10 IC50 for Fc1c(-c2cccc3cccc(F)c23)ncc2c(N3CCCSCC3)nc(OCC34CCCN3CCC4)nc12 ? Thanks! 3.36

Could you please provide reported log10 IC50 for O=S1(=O)CC[C@H](CNc2nc(OCC34CCCN3CCC4)nc3c(F)c(-c4cccc5cccc(F)c45)ncc23)N1 ? Thanks! 3.62

Could you please provide reported log10 IC50 for O=C1CC2CCN(c3nc(OCC45CCCN4CCC5)nc4c(F)c(-c5cccc6cccc(F)c56)ncc34)CC2C(=O)N1 (centres unmarked) ? Thanks! 4.93

Could you please provide reported log10 IC50 for CN(Cc1c[nH]c2ncccc12)c1nc(OCC23CCCN2CCC3)nc2c(F)c(-c3cccc4cccc(F)c34)ncc12 ? Thanks! 2.82

Could you please provide reported log10 IC50 for Cc1cc2[nH]ncc2c(-c2ncc3c(N4CCCC(C)(O)C4)nc(OC[C@@]45CCCN4C[C@H](F)C5)nc3c2F)c1C (some centres unmarked) ? Thanks! 3.03

Could you please provide reported log10 IC50 for CCc1cccc2cccc(-c3ncc4c(NCc5cn[nH]c5)nc(OCC56CCCN5CCC6)nc4c3F)c12 ? Thanks! 2.35

Could you please provide reported log10 IC50 for O=C1NCC(CNc2nc(OCC34CCCN3CCC4)nc3c(F)c(-c4cccc5cccc(F)c45)ncc23)O1 (centres unmarked) ? Thanks! 3.39

Could you please provide reported log10 IC50 for Cc1cc(N)nc(-c2ncc3c(N4CCCC(C)(O)C4)nc(OC[C@@]45CCCN4C[C@H](F)C5)nc3c2F)c1C(F)(F)F (some centres unmarked) ? Thanks! 3.00

Could you please provide reported log10 IC50 for Fc1c(-c2cccc3cccc(F)c23)ncc2c(Nc3cnn(-c4ccncc4)c3)nc(OCC34CCCN3CCC4)nc12 ? Thanks! 4.58

Could you please provide reported log10 IC50 for CCc1c(F)ccc2cc(O)cc(-c3ncc4c(N5CCCCC6(C5)NC(=O)NC6=O)nc(OC[C@@]56CCCN5C[C@H](F)C6)nc4c3F)c12 (some centres unmarked) ? Thanks! 0.60

Could you please provide reported log10 IC50 for CC1(O)CCCN(c2nc(OCC34CCCN3CCC4)nc3c(F)c(-c4cccc5sc(N)nc45)ncc23)C1 (centres unmarked) ? Thanks! 4.21

Could you please provide reported log10 IC50 for C[C@H]1C[C@@H](O)CN(c2nc(OCC34CCCN3CCC4)nc3c(F)c(-c4cccc5cccc(F)c45)ncc23)C1 ? Thanks! 4.00

Could you please provide reported log10 IC50 for O=C1NCC2(CCCN(c3nc(OCC45CCCN4CCC5)nc4c(F)c(-c5cccc6cccc(CO)c56)ncc34)C2)N1 (centres unmarked) ? Thanks! 3.05

Could you please provide reported log10 IC50 for Cc1n[nH]c(C2CCCN(c3nc(OCC45CCCN4CCC5)nc4c(F)c(-c5cc(O)cc6ccc(F)c(F)c56)ncc34)C2)n1 (centres unmarked) ? Thanks! 0.70

Could you please provide reported log10 IC50 for Fc1c(-c2cccc3cccc(F)c23)ncc2c(Nc3ccc4cn[nH]c4c3)nc(OCC34CCCN3CCC4)nc12 ? Thanks! 3.81

Could you please provide reported log10 IC50 for CCc1c(F)ccc2cc(O)cc(-c3ncc4c(NC5CCS(=O)(=O)C5)nc(OC[C@@]56CCCN5C[C@H](F)C6)nc4c3F)c12 (some centres unmarked) ? Thanks! 0.85

Could you please provide reported log10 IC50 for CCc1c(F)ccc2cc(O)cc(-c3ncc4c(NCCN5C(=O)CNC5=O)nc(OC[C@@]56CCCN5C[C@H](F)C6)nc4c3F)c12 ? Thanks! 1.53
